Provide the reported melting point of each item.

Illustrative cases are given below, each with its answer.
compound | melting point
c1ccc2c(P(c3cccc4ccccc34)c3cccc4ccccc34)cccc2c1 | 265 to 268 °C
COc1ccc(Br)c(C(=O)CC#N)c1 | 92 to 93 °C
NC(=O)c1cccnc1Oc1ccc(Cl)cc1 | 150 to 152 °C

For the 6 compounds below, give their melting point values.
1. COc1cc2c(cc1OC)C(C(=O)O)C2 (centres undefined)
2. C1=C(c2ccccc2)Cc2ccccc21
3. OCc1ccccc1COc1ccccc1
4. O=C1NC(=O)C(=NO)C(=O)N1
5. CCCc1ccc(NC(C)=O)cc1
6. Cc1nc(-c2cccc(S(=O)(=O)Cl)c2)no1

1: 134 to 143 °C; 2: 166 to 167 °C; 3: 50 to 51 °C; 4: 236 to 242 °C; 5: 98 to 100 °C; 6: 67 to 69 °C

---

For each of the molecules below, state its melting point.

Here is how some molecules turned out for melting point.
molecule | melting point
CC(C)(C=NO)NO | 98 to 100 °C
Cc1cc(C)c(Cc2c(C)cc(C)cc2C)c(C)c1 | 130 °C
CC(=O)OC1CC2C(CCC3(C)C(C(C)CCCC(C)C)CCC23)C2(C)CCC(=O)C=C12 (configuration not stated) | 101 to 102 °C

Required: melting point, one value per molecule below.
1. CNC(=O)Oc1cc(C)c(SC)c(C)c1
2. Cc1ccc(O)c2c1CCC2
3. Sc1nnc(-c2ccc(Cl)cc2Cl)n1Cc1ccco1
4. NC(=O)NNc1ccccc1

1: 120 °C; 2: 82 to 83 °C; 3: 158 to 160 °C; 4: 174 to 176 °C

---

Exercise: state measured melting point for each of the compounds provided.

Known results for compounds:
smiles structure | melting point
COc1cccc2cc(C(=O)O)c(=O)oc12 | 214 to 216 °C
Cc1cc(N)no1 | 59 to 63 °C

Let us move to another entry and its melting point.
Item under review: O=C(O)[C@@H]1Cc2ccc(O)cc2CN1 . Reported melting point?
273 to 275 °C

---

test readout: melting point

Before answering, review these 3 worked examples.
compound | melting point
COC(=O)c1sccc1S(=O)(=O)Cl | 62 to 66 °C
CC(C)C[C@@H](CC#N)NC(=O)OC(C)(C)C | 75 to 77 °C
Oc1cccc2c1CCCC2O (centres undefined) | 132 to 134 °C

# input for lookup
Sample CC1C/C(=C\c2ccc([N+](=O)[O-])cc2)C(=O)/C(=C/c2ccc([N+](=O)[O-])cc2)C1 (centres undefined) — what was its melting point?
192 to 193 °C

---

test readout: melting point

Solved entries (count: 6):
smiles structure | endpoint result
CN(C)c1ccc2c(C(F)(F)F)cc(=O)oc2c1 | 147 to 149 °C
CC(=O)COc1c([N+](=O)[O-])ccc(F)c1F | 40 to 45 °C
Nc1ccccc1S(=O)(=O)c1ccccc1 | 118 to 122 °C
O=[N+]([O-])/C=C/c1cccc(/C=C/[N+](=O)[O-])c1 | 203 to 204 °C
O=Cc1ccc2occc2c1 | 37 to 38 °C
CC(C)(C)OC(=O)N1CCN(c2ccc(CO)cc2)CC1 | 109 to 111 °C

// for each compound in input: emit melting point
1. COC(=O)N/C=C/c1ccccc1[N+](=O)[O-]
2. O=C(Cl)C1=Cc2cc(Cl)ccc2OC1
3. COC(=O)c1ccc(NS(=O)(=O)c2ccc(C)cc2)c(NS(=O)(=O)c2ccc(C)cc2)c1
4. NCCCNc1ncc(C(F)(F)F)cc1Cl
5. CC(C)Nc1ccc(C#N)cc1[N+](=O)[O-]
6. CN(C)S(C)(=O)=O
7. COc1ccc(C(C)=NO)cc1OC

1: 146 to 148 °C; 2: 92 to 94 °C; 3: 180 to 182 °C; 4: 60 to 65 °C; 5: 113 to 115 °C; 6: 49 to 50 °C; 7: 147 to 150 °C

Could you tell me melting point for each of these compounds? They are listed below.
1. Cc1cccc(NC(=O)c2nn(-c3ccccc3)nc2C)n1
2. CCCCSP(SCCCC)SCCCC
3. O=c1oc(=O)n(Cc2ccccc2)c2ccccc12

["136 to 137 °C", "100 °C", "136 to 139 °C"]
